- TESTED_ON: Substance-K receptor (Homo sapiens, UniProt P21452)
- Sequence (P21452 whole entry): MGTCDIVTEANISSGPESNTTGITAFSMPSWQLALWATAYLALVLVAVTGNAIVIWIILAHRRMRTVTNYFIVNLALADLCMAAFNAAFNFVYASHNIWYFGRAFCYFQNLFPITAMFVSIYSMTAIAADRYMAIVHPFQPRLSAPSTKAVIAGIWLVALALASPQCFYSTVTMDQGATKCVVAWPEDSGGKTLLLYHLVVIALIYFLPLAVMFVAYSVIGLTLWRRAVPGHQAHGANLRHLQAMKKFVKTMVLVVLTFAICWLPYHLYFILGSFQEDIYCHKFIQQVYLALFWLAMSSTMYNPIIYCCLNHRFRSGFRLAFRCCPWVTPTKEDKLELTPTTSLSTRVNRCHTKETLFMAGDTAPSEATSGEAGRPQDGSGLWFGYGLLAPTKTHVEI
- EXPERIMENTAL_DETAILS: Binding affinity against recombinant human tachykinin receptor 2 in CHO cells using [3H]NKA as a radioligand
EXPERIMENTAL_ENDPOINT: Ki (nM)
// return numeric value only (unit: nM, not printed)

Known results for molecules:
CO/N=C(\CN(C)C(=O)c1cc(Cl)cc(Cl)c1)C(CCN1CCC(N2CCCCC2=O)CC1)c1ccc(Cl)c(Cl)c1 (configuration not stated)	1.6
CN(C/C(=N\OCC(=N)NO)C(CCN1CCC(N2CCCCC2=O)CC1)c1ccc(Cl)c(Cl)c1)C(=O)c1cc(Cl)cc(Cl)c1 (configuration not stated)	0.7
CSCCCO/N=C(\CN(C)C(=O)c1cc(Cl)cc(Cl)c1)C(CCN1CCC(N2CCCCC2=O)CC1)c1ccc(Cl)c(Cl)c1 (configuration not stated)	11.5
CN(C/C(=N\OCC(=N)NO)[C@H](CCN1CCC(N2CCCCC2=O)CC1)c1ccc(Cl)c(Cl)c1)C(=O)c1cc(Cl)cc(Cl)c1	0.5
CN(C/C(=N\OCCO)C(CCN1CCC(N2CCCCC2=O)CC1)c1ccc(Cl)c(Cl)c1)C(=O)c1cc(Cl)cc(Cl)c1 (configuration not stated)	0.8

Consider the molecule CN(C/C(=N\OCCN1CCNCC1)C(CCN1CCC(N2CCCCC2=O)CC1)c1ccc(Cl)c(Cl)c1)C(=O)c1cc(Cl)cc(Cl)c1 (configuration not stated) and give its measured Ki.
50

// Ki lookup, key: COCCNC(=O)CO/N=C(\CN(C)C(=O)c1cc(Cl)cc(Cl)c1)C(CCN1CCC(N2CCCCC2=O)CC1)c1ccc(Cl)c(Cl)c1 (configuration not stated)
48

* * *

- EXPERIMENTAL_DETAILS: Area under curve was determined at a dose 30 mpk administered orally.
- Type: ADME, organism-based
- CONDITION_LABEL: rat, in vivo, po, 30 mg/kg
EXPERIMENTAL_ENDPOINT: AUC

Which AUC is listed for CN(C/C(=N\OCC(=N)NO)C(CCN1CCC(N2CCCCC2=O)CC1)c1ccc(Cl)c(Cl)c1)C(=O)c1cc(Cl)cc(Cl)c1 (stereo unspecified) ?
3 µM·h

* * *

Documented pKi across a set of compounds
- TESTED_ON: UniProtKB P25103
- Sequence (P25103 whole entry): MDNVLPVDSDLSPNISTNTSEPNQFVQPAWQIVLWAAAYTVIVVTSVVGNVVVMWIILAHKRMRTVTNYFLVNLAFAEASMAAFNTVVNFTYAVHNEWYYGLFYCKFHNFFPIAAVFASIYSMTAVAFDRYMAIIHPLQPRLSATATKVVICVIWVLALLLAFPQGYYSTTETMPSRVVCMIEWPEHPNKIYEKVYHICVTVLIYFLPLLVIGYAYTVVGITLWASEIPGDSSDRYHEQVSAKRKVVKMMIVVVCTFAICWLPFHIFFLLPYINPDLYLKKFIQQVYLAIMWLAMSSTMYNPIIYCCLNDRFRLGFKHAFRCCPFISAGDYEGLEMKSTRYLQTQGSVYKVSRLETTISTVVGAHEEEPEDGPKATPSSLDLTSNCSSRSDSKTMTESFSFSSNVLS
- EXPERIMENTAL_DETAILS: Binding affinity against recombinant human tachykinin receptor 1 in CHO cells using [3H]-Sar SP as a radioligand
For clarity, pKi is expressed as the negative log10 of concentration in mol/L.

Use the examples below as a reference point.
COC(=O)CO/N=C(\CN(C)C(=O)c1cc(Cl)cc(Cl)c1)C(CCN1CCC(N2CCCCC2=O)CC1)c1ccc(Cl)c(Cl)c1 (configuration not stated)	8.33
OCCO/N=C(\COCc1cc(C(F)(F)F)cc(C(F)(F)F)c1)C(CCN1CCC(O)(c2ccccc2)CC1)c1ccc(Cl)c(Cl)c1 (configuration not stated)	7.70

Any idea what pKi was measured for CN(C/C(=N\OCCCS(=O)(=O)O)C(CCN1CCC(N2CCCCC2=O)CC1)c1ccc(Cl)c(Cl)c1)C(=O)c1cc(Cl)cc(Cl)c1 (configuration not stated) ?
8.48

// query pKi value for entry CN(C/C(=N\OCCCO)C(CCN1CCC(N2CCCCC2=O)CC1)c1ccc(Cl)c(Cl)c1)C(=O)c1cc(Cl)cc(Cl)c1 (configuration not stated)
9.15

Need pKi of CC/C=C(\COCc1cc(C(F)(F)F)cc(C(F)(F)F)c1)C(CCN1CCC(O)(c2ccccc2)CC1)c1ccc(Cl)c(Cl)c1 (configuration not stated) , thanks.
7.24

I have this compound here, CN(C/C(=N\OCC#N)C(CCN1CCC(N2CCCCC2=O)CC1)c1ccc(Cl)c(Cl)c1)C(=O)c1cc(Cl)cc(Cl)c1 (configuration not stated) , and I need its recorded pKi.
8.82

Item C=CCO/N=C(\COCc1cc(C(F)(F)F)cc(C(F)(F)F)c1)C(CCN1CCC(O)(c2ccccc2)CC1)c1ccc(Cl)c(Cl)c1 (configuration not stated) has what recorded pKi?
7.00
